# System: Aedes aegypti mosquitoes, insecticide-susceptible Orlando strain
# condition_context: Table 3A
Assignment: determine reported 24 h LC50, μg/cm^2 for the given molecules.
The response must be a number in μg/cm^2 with no trailing unit.

Form field - read-out: 24 h LC50, μg/cm^2; system: Aedes aegypti mosquitoes, insecticide-susceptible Orlando strain; submitted item: `O=C(Nc1cc(F)c(F)c(F)c1)C(F)(F)C(F)(F)OC(F)(F)F` 14.94

Form field - read-out: 24 h LC50, μg/cm^2; system: Aedes aegypti mosquitoes, insecticide-susceptible Orlando strain; submitted item: `O=C(Nc1c(Cl)cccc1Cl)C(F)(F)C(F)(F)F` 7.60

Form field - read-out: 24 h LC50, μg/cm^2; system: Aedes aegypti mosquitoes, insecticide-susceptible Orlando strain; submitted item: `O=C(Nc1c(Cl)cc(C(F)(F)F)cc1Cl)C(F)(F)C(F)(F)F` 0.27

Form field - read-out: 24 h LC50, μg/cm^2; system: Aedes aegypti mosquitoes, insecticide-susceptible Orlando strain; submitted item: `O=C(Nc1cc(F)c(F)c(F)c1)C(F)(F)C(F)(F)C(F)(F)F` 13.30

* * *

Assignment: determine reported LD50 at 24 h for the given molecules.
# assay_details: Mammalian toxicity, oral gavage
# Format: in vivo
# condition_context: ICR, in vivo; Table 3A; oral gavage; preliminary mouse screening

GET /values?readout=LD50 at 24 h&item= O=C(Nc1c(Cl)cc(C(F)(F)F)cc1Cl)C(F)(F)C(F)(F)F [compound 41] 200 mg/kg

GET /values?readout=LD50 at 24 h&item= O=C(Nc1cc(F)c(F)c(F)c1)C(F)(F)C(F)(F)C(F)(F)F [compound 52] > 2000 mg/kg

GET /values?readout=LD50 at 24 h&item= O=C(Nc1c(Cl)cccc1Cl)C(F)(F)C(F)(F)F [compound 53] > 2000 mg/kg

* * *

# System: Aedes aegypti mosquitoes, insecticide-susceptible Orlando strain
# condition_context: 24 h; LC50 (OR)
property_measured: 24 h LC50, μg/cm^2

GET /values?readout=24 h LC50, μg/cm^2&item= `CN(C(=O)C(F)(F)C(F)(F)C(F)(F)F)c1cc(Cl)nc(Cl)c1` 14 μg/cm^2

GET /values?readout=24 h LC50, μg/cm^2&item= `O=C(Nc1cc(Cl)nc(Cl)c1)C(F)(F)F` 181 μg/cm^2

GET /values?readout=24 h LC50, μg/cm^2&item= `O=C(Nc1c(Cl)cc(C(F)(F)F)cc1Cl)C(F)(F)C(F)(F)F` 0.3 μg/cm^2

GET /values?readout=24 h LC50, μg/cm^2&item= `O=C(Nc1ccc(F)cc1)C(F)(F)C(F)(F)F` 35.3 μg/cm^2

GET /values?readout=24 h LC50, μg/cm^2&item= `CC(C)(C)OC(=O)N(C(=O)C(F)(F)C(F)(F)F)c1c(Cl)cc(C(F)(F)F)cc1Cl` 12 μg/cm^2

GET /values?readout=24 h LC50, μg/cm^2&item= `O=C(Nc1cc(F)c(F)c(F)c1)C(F)(F)C(F)(F)F` 21.6 μg/cm^2

GET /values?readout=24 h LC50, μg/cm^2&item= `O=C(Nc1cc(Cl)nc(Cl)c1)C(F)(F)C(F)(F)C(F)(F)F` 25 μg/cm^2

GET /values?readout=24 h LC50, μg/cm^2&item= `O=C(Nc1cc(F)c(F)c(F)c1)C(F)(F)C(F)(F)OC(F)(F)F` 15 μg/cm^2

GET /values?readout=24 h LC50, μg/cm^2&item= `O=C(Nc1cc(F)c(F)c(F)c1)C(F)(F)C(F)(F)C(F)(F)F` 13 μg/cm^2

GET /values?readout=24 h LC50, μg/cm^2&item= CC1(C)[C@H](C=C(Cl)Cl)[C@H]1C(=O)OCc1c(F)c(F)cc(F)c1F [Transfluthrin, transfluthrin, reference compound] 0.16 μg/cm^2

GET /values?readout=24 h LC50, μg/cm^2&item= `O=C(Nc1cc(F)cc(F)c1)C(F)(F)C(F)(F)F` 4.9 μg/cm^2

GET /values?readout=24 h LC50, μg/cm^2&item= `O=C(CCl)Nc1ccccc1C(F)(F)F` 14 μg/cm^2

GET /values?readout=24 h LC50, μg/cm^2&item= `CCC(=O)Nc1cc(F)c(F)c(F)c1` 95 μg/cm^2

GET /values?readout=24 h LC50, μg/cm^2&item= `O=C(Nc1cc(Cl)nc(Cl)c1)C(F)(F)C(F)(F)F` 35 μg/cm^2

GET /values?readout=24 h LC50, μg/cm^2&item= `CCC(=O)N(C(=O)CC)c1cccc(OC(F)(F)F)c1` 52 μg/cm^2

GET /values?readout=24 h LC50, μg/cm^2&item= `CC(C(=O)Nc1cc(F)c(F)c(F)c1)(C(F)(F)F)C(F)(F)F` 16.6 μg/cm^2

GET /values?readout=24 h LC50, μg/cm^2&item= C/C=C/C1C(C(=O)OCc2c(F)c(F)c(COC)c(F)c2F)C1(C)C (centres unmarked) [Metofluthrin, metofluthrin, reference compound] 0.84 μg/cm^2

* * *

# System: Aedes aegypti mosquitoes, pyrethroid-resistant Puerto Rico strain
# assay_details: Vapor repellency glass tube assay (1 h), resistant strain
# Assay type: in vivo
# condition_context: with resistance ratio (PR)
Assignment: determine reported 1 h Repellency EC50, μg/cm^2 (RR) for the given molecules.
The response must be a number in μg/cm^2 with no trailing unit.

Form field - read-out: 1 h Repellency EC50, μg/cm^2 (RR); system: Aedes aegypti mosquitoes, pyrethroid-resistant Puerto Rico strain; submitted item: `O=C(Nc1cc(C(F)(F)F)cc(C(F)(F)F)c1)C(F)F` 24

Form field - read-out: 1 h Repellency EC50, μg/cm^2 (RR); system: Aedes aegypti mosquitoes, pyrethroid-resistant Puerto Rico strain; submitted item: CC1(C)[C@H](C=C(Cl)Cl)[C@H]1C(=O)OCc1c(F)c(F)cc(F)c1F [Transfluthrin, transfluthrin, reference compound] 2.3

Form field - read-out: 1 h Repellency EC50, μg/cm^2 (RR); system: Aedes aegypti mosquitoes, pyrethroid-resistant Puerto Rico strain; submitted item: C/C=C/C1C(C(=O)OCc2c(F)c(F)c(COC)c(F)c2F)C1(C)C (stereo not drawn) [Metofluthrin, metofluthrin, reference compound] 12

Form field - read-out: 1 h Repellency EC50, μg/cm^2 (RR); system: Aedes aegypti mosquitoes, pyrethroid-resistant Puerto Rico strain; submitted item: `O=C(Nc1cc(F)c(F)c(F)c1)C(F)(F)C(F)(F)C(F)(F)F` 4.5

Form field - read-out: 1 h Repellency EC50, μg/cm^2 (RR); system: Aedes aegypti mosquitoes, pyrethroid-resistant Puerto Rico strain; submitted item: CCN(CC)C(=O)c1cccc(C)c1 [DEET, N,N-diethyl-m-toluamide, reference compound] 79

Form field - read-out: 1 h Repellency EC50, μg/cm^2 (RR); system: Aedes aegypti mosquitoes, pyrethroid-resistant Puerto Rico strain; submitted item: `CC(=O)Nc1ccccc1C(F)(F)F` 81

* * *

# Tested on: Aedes aegypti mosquitoes, pyrethroid-resistant Puerto Rico strain
# assay_details: Vapor toxicity (24 h lethality under constant exposure in glass tubes), resistant strain
# condition_context: LC50, with resistance ratio (PR)
property_measured: 24 h LC50, μg/cm^2 (RR)

Form field - read-out: 24 h LC50, μg/cm^2 (RR); system: Aedes aegypti mosquitoes, pyrethroid-resistant Puerto Rico strain; submitted item: CC1(C)[C@H](C=C(Cl)Cl)[C@H]1C(=O)OCc1c(F)c(F)cc(F)c1F [Transfluthrin, transfluthrin, reference compound] 7.6 μg/cm^2

Form field - read-out: 24 h LC50, μg/cm^2 (RR); system: Aedes aegypti mosquitoes, pyrethroid-resistant Puerto Rico strain; submitted item: O=C(Nc1cc(F)c(F)c(F)c1)C(F)(F)C(F)(F)C(F)(F)F [MTFI-5-3A] 11 μg/cm^2

Form field - read-out: 24 h LC50, μg/cm^2 (RR); system: Aedes aegypti mosquitoes, pyrethroid-resistant Puerto Rico strain; submitted item: C/C=C/C1C(C(=O)OCc2c(F)c(F)c(COC)c(F)c2F)C1(C)C (stereo not shown) [Metofluthrin, metofluthrin, reference compound] 43 μg/cm^2

Form field - read-out: 24 h LC50, μg/cm^2 (RR); system: Aedes aegypti mosquitoes, pyrethroid-resistant Puerto Rico strain; submitted item: O=C(Nc1cc(Cl)nc(Cl)c1)C(F)(F)C(F)(F)C(F)(F)F [GMR031] 22 μg/cm^2

* * *

# Test system: Aedes aegypti mosquitoes, insecticide-susceptible Orlando strain
# Format: in vivo
# condition_context: 1 h; (OR)
Assignment: determine reported 1 h Repellency EC50, μg/cm^2 for the given compounds.
The response must be a number in μg/cm^2 with no trailing unit.

GET /values?readout=1 h Repellency EC50, μg/cm^2&item= `CCC(=O)Nc1cccc(OC(F)(F)F)c1` 123

GET /values?readout=1 h Repellency EC50, μg/cm^2&item= `N#CC(F)(F)C(=O)Nc1cc(F)c(F)c(F)c1` 28

GET /values?readout=1 h Repellency EC50, μg/cm^2&item= CCN(CC)C(=O)c1cccc(C)c1 [DEET, N,N-diethyl-m-toluamide, reference compound] 35

Where these numbers come from: patent US20230337677A1
